From: patent US20240228660A1

Target: human full-length VWF (human, UniProt P04275 764-2813)
Experiment: SPR, Biacore T200, antibody captured on Protein A, full-length VWF as analyte, single-cycle kinetics
Below: a set of entries, each annotated with reported kon.
measured-attribute: kon (M⁻¹ s⁻¹)

INSERT INTO assay_data (binder, unit_tag, numeric_result) VALUES
  ('1-D5_VH-par_L1 (antibody, human IgG1, kappa, V domains shown, also called 1-D5_L1 (hIgG1K)) VH: QQQLVESGGRLVTPGTPLTLTCAVSGFSLNNYIMGWVRQAPGKGLEYIGIISTGGSTYYASWAKGRFTISRTSTTMDLKMTSLTTEDTATYFCARGGSSAGAGFNIWGPGTLVTVSS VL: DIQMTQSPSSLSASVGDRVTITCQASQSINSGLAWYQQKPGKAPKRLIYKASTLASGVPSRFSGSGSGTDFTLTISSLQPEDFATYYCQSYHYISANGATFGGGTKVEIKT', 'M⁻¹ s⁻¹', 96000),
  ('1-D5_H1_L1 (antibody, human IgG1, kappa, V domains shown, humanised, human IgG1 kappa) VH: QVQLVESGGGVVQPGRSLRLSCAASGFSLNNYIMGWVRQAPGKGLEWVAIISTGGSTYYASWAKGRFTISRDNSKNTLYLQMNSLRAEDTAVYYCARGGSSAGAGFNIWGQGTLVTVSS VL: DIQMTQSPSSLSASVGDRVTITCQASQSINSGLAWYQQKPGKAPKRLIYKASTLASGVPSRFSGSGSGTDFTLTISSLQPEDFATYYCQSYHYISANGATFGGGTKVEIKT', 'M⁻¹ s⁻¹', 71000),
  ('1-D5_H0_VL-par (antibody, human IgG1, kappa, V domains shown, also called 1-D5_H0 (hIgG1)) VH: QVQLVESGGGVVQPGRSLRLSCAASGFTFSNYIMGWVRQAPGKGLEWVAIISTGGSTYYASWAKGRFTISRDNSKNTLYLQMNSLRAEDTAVYYCARGGSSAGAGFNIWGQGTLVTVSS VL: DIVMTQTPSSVSAAVGDTVTIQCQASQSINSGLAWYQQKPGQPPKRLIYKASTLASGVPSRFRGSGSGTDFTLTISDLECADAATYYCQSYHYISANGATFGGGTEVVVET', 'M⁻¹ s⁻¹', 77000),
  ('1-D5_H2_L0 (antibody, human IgG1, kappa, V domains shown, humanised, human IgG1 kappa) VH: QQQLVESGGGVVQPGRSLRLSCAASGFSLNNYIMGWVRQAPGKGLEYIGIISTGGSTYYASWAKGRFTISRDSNTMYLQMNSLRAEDTATYFCARGGSSAGAGFNIWGQGTLVTVSS VL: DIQMTQSPSSLSASVGDRVTITCQASQSINSGLAWYQQKPGKAPKLLIYKASTLASGVPSRFSGSGSGTDFTLTISSLQPEDFATYYCQSYHYISANGATFGGGTKVEIKT', 'M⁻¹ s⁻¹', 138000),
  ('1-D5_H2_L1 (antibody, human IgG1, kappa, V domains shown, humanised, human IgG1 kappa) VH: QQQLVESGGGVVQPGRSLRLSCAASGFSLNNYIMGWVRQAPGKGLEYIGIISTGGSTYYASWAKGRFTISRDSNTMYLQMNSLRAEDTATYFCARGGSSAGAGFNIWGQGTLVTVSS VL: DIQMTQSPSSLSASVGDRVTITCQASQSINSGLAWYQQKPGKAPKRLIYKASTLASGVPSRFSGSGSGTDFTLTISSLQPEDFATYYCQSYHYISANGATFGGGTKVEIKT', 'M⁻¹ s⁻¹', 298000);
